src = PubChem BioAssay AID1918998

system: 521955-158-R2-J5-PDC complex spheroid growth; test: Anticancer human tumor 521955-158-R2-J5-PDC patient-derived pancreatic carcinoma cell line growth inhibition [AhR]; settings: second compound 0.316 µM; first compound 0.0316 µM; active compounds read low;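 note: spheroids mix tumor cells with HUVEC endothelium and human MSC stroma; luminescence taken as viability surrogate after a week of drug exposure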
valueType: viability, T/C (%)

| compound | valueType | unitOfMeasurement | experimentalValue |
| --- | --- | --- | --- |
| Cn1ncnc1C1c2n[nH]c(=O)c3cc(F)cc(c23)NC1c1ccc(F)cc1 (stereo unspecified) + Cc1cncc(-c2nc(NCCc3c[nH]c4ccccc34)c3ncn(C(C)C)c3n2)c1 | viability, T/C | % | 87.6 |
| Nc1ccccc1NC(=O)c1ccc(CNC(=O)OCc2cccnc2)cc1 + Cc1cncc(-c2nc(NCCc3c[nH]c4ccccc34)c3ncn(C(C)C)c3n2)c1 | viability, T/C | % | 117 |
| CC[C@@]1(O)C(=O)OCc2c1cc1n(c2=O)Cc2cc3c(CN(C)C)c(O)ccc3nc2-1 + Cc1cncc(-c2nc(NCCc3c[nH]c4ccccc34)c3ncn(C(C)C)c3n2)c1 | viability, T/C | % | 61.6 |
| CC1COCCN1c1cc(-c2ccnn2C)c2ccnc(-c3ccn[nH]3)c2n1 (stereo unspecified) + Cc1ccccc1N=Nc1ccc(NC(=O)c2ccnn2C)c(C)c1 | viability, T/C | % | 127 |
| NS(=O)(=O)OCC1CC(n2ccc3c(NC4CCc5ccccc54)ncnc32)CC1O (stereo unspecified) + Cc1cncc(-c2nc(NCCc3c[nH]c4ccccc34)c3ncn(C(C)C)c3n2)c1 | viability, T/C | % | 105 |
| COc1cccc2c1C(=O)c1c(O)c3c(c(O)c1C2=O)CC(O)(C(=O)CO)CC3OC1CC(N)C(O)C(C)O1 (stereo unspecified) + CC(CO)NC(=O)c1cc(-c2ccc(Cl)cc2)nn(-c2cnn(C)c2)c1=O | viability, T/C | % | 54.6 |
